meta.source: patent US20120172359A1

Listing of entries alongside the reported IC50.
targetOfAssay: Human BACE-1 (Homo sapiens)
Sequence (P56817 46-457 limits assumed): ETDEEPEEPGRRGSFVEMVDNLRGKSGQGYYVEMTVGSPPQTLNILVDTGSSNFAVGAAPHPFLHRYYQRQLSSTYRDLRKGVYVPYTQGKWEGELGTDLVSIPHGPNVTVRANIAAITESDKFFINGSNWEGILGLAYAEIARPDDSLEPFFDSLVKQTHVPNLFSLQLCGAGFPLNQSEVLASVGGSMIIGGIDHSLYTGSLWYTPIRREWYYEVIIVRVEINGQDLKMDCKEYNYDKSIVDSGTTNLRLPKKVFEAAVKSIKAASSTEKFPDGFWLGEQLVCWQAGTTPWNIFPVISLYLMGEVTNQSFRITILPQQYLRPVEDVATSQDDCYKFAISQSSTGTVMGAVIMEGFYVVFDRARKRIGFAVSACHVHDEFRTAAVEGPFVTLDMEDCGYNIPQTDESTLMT
testProtocol: Test 1: Inhibition of Human BACE-1
Type: biochemical
studyConditions: Test 1; recombinant BACE-1 (extracellular domain), acetate buffer pH 4.5, 1 hour with test compound at room temperature, fluorescence-quenched peptide substrate; read-out: Bace IC50
Counter-ions that a name gives are not always drawn.

molecule	IC50 [µM]
CC1(c2cc(NC(=O)c3ccc(C(N)=O)cn3)ccc2F)COCC(N)=N1 (stereo not drawn) [Example 65, hydrochloride]	1.2
Cc1nc(C(=O)Nc2cc(Br)cc([C@]3(C)COCC(N)=N3)c2)c(C)o1	0.78
CC1(c2cccc(NC(=O)c3ccco3)c2)COCC(N)=N1 (stereo not drawn) [Example 1, hydrochloride]	1.3

---

Listing of entries alongside the reported IC50.
targetOfAssay: Human BACE-1 (Homo sapiens)
testProtocol: Test 1: Inhibition of Human BACE-1
Format: biochemical
studyConditions: Test 1; recombinant BACE-1 (extracellular domain), acetate buffer pH 4.5, 1 hour with test compound at room temperature, fluorescence-quenched peptide substrate; read-out: Bace IC50
Counter-ions that a name gives are not always drawn.

compound	modifierSign	IC50, nM
COc1ccc(C(=O)Nc2cccc([C@]3(C)COCC(N)=N3)c2)nc1 [Example 30]	=	330
NC1=N[C@@](c2cc(NC(=O)c3cc4cccn4cn3)ccc2F)(C(F)F)COC1 [Example 163]	=	680
NC1=N[C@@](c2cc(NC(=O)c3ccc(C(F)(F)F)cn3)ccc2F)(C(F)F)COC1 [Example 47]	=	56
CC1(c2cccc(NC(=O)c3cn4ccccc4n3)c2)COCC(N)=N1 (stereo not shown) [Example 8]	>	10000
NC1=N[C@@](c2cc(NC(=O)c3cnc(OCCF)cn3)ccc2F)(C(F)F)COC1 [Example 136, hydrochloride]	=	130
Cc1nc(C(=O)Nc2cc(Br)cc([C@]3(C)COCC(N)=N3)c2)co1 [Example 59]	=	240
COc1cnc(C(=O)Nc2cccc(C3(C)COCC(N)=N3)c2)cn1 (stereo not shown) [Example 18]	=	560
CC1(c2cccc(NC(=O)c3ccc(O)nn3)c2)COCC(N)=N1 (stereo not shown) [Example 12]	=	850
CC1(c2cc(NC(=O)c3ccc(C#N)cn3)ccc2F)N=C(N)COCC1(F)F (stereo not shown) [Example 156]	=	34
C[C@H]1OC[C@](c2cc(NC(=O)c3ccc(Br)cn3)ccc2F)(C(F)F)N=C1N (relative stereo) [Example 77, hydrochloride]	=	92
NC1=N[C@@](c2cc(NC(=O)c3cnc(OCC(F)F)cn3)ccc2F)(C(F)F)COC1 [Example 123, hydrochloride]	=	97
CC1(c2cccc(NC(=O)c3ncc(Br)cn3)c2)COCC(N)=N1 (stereo not shown) [Example 7]	=	540
Cc1cnc(C(=O)Nc2ccc(F)c([C@]3(C(F)F)COCC(N)=N3)c2)s1 [Example 149, hydrochloride]	=	700

---

targetOfAssay: UniProtKB P56817
testProtocol: Test 1: Inhibition of Human BACE-1
Format: biochemical
studyConditions: Test 1; recombinant BACE-1 (extracellular domain), acetate buffer pH 4.5, 1 hour with test compound at room temperature, fluorescence-quenched peptide substrate; read-out: Bace IC50
pIC50: −log10 of the molar value. Structures can show the parent of a compound that is named as a salt.

molecule	modifierSign	pIC50
[2H]c1nc(C(=O)Nc2ccc(F)c([C@]3(C(F)F)COCC(N)=N3)c2)c(C([2H])([2H])[2H])c([2H])c1C#N [Example 147]	=	7.10
NC1=N[C@](CF)(c2cc(NC(=O)c3ncc(Br)cc3O)ccc2F)COC1 [Example 94, hydrochloride]	=	7.66
NC1=NC(c2cccc(NC(=O)c3ncc(C(F)(F)F)cc3Cl)c2)(C(F)F)COC1 (centres unmarked) [Example 40]	=	6.00
Cc1nc(C(=O)Nc2cccc(C3(C(F)F)COCC(N)=N3)c2)co1 (centres unmarked) [Example 104, hydrochloride]	=	5.82
NC1=NC(CF)(c2cc(NC(=O)c3ncc(Cl)cc3Cl)ccc2F)COC1 (centres unmarked) [Example 88, hydrochloride]	=	7.48
Cc1cnc(C(=O)Nc2cc(Br)cc([C@]3(C)COCC(N)=N3)c2)cn1 [Example 57]	=	5.77
CC1(c2cccc(NC(=O)c3coc(C(F)(F)F)c3)c2)COCC(N)=N1 (centres unmarked) [Example 23]	=	4.96
NC1=N[C@@](c2cc(NC(=O)c3cnc(C(F)F)cn3)ccc2F)(C(F)F)COC1 [Example 122, hydrochloride]	=	6.70
COc1cnc(C(=O)Nc2ccc(F)c([C@]3(C(F)F)COCC(N)=N3)c2)c(OC)c1 [Example 179]	=	6.04
NC1=N[C@@](c2cc(NC(=O)c3ccc(OCF)cn3)ccc2F)(C(F)F)COC1 [Example 139]	=	7.12
Cc1c(C(=O)Nc2ccc(F)c([C@]3(C(F)F)COCC(N)=N3)c2)nnn1C [Example 173]	<	5.00
C[C@@]1(c2cc(NC(=O)c3ccc(C#N)cn3)ccc2F)CO[C@@](C)(C(F)(F)F)C(N)=N1 [Example 73, hydrochloride]	=	7.59
COc1cc(Br)cnc1C(=O)Nc1ccc(F)c(C2(C)N=C(N)COCC2(F)F)c1 (centres unmarked) [Example 155]	=	6.74
COCCOc1cnc(C(=O)Nc2ccc(F)c([C@]3(C(F)F)COCC(N)=N3)c2)c(N)n1 [Example 158]	=	7.74
Cc1cc(Br)cnc1C(=O)Nc1ccc(F)c(C2(C)COCC(N)=N2)c1 (centres unmarked) [Example 64, hydrochloride]	=	7.40
Cc1cnc(C(=O)Nc2cccc(C3(C(F)F)COCC(N)=N3)c2)cn1 (centres unmarked) [Example 38]	<	5.00
NC1=NC(c2cc(NC(=O)c3ccc(Cl)cn3)ccc2F)(C(F)F)COC1 (centres unmarked) [Example 43]	=	7.21
Cc1c(C(=O)Nc2ccc(F)c([C@]3(C(F)F)COCC(N)=N3)c2)oc2ccc(CN(C)C)cc12 [Example 172]	=	8.05
NC1=N[C@@](c2cc(NC(=O)c3ncc(F)cc3F)ccc2F)(C(F)F)COC1 [Example 113, hydrochloride]	=	6.92
Cl.[2H]c1nc(C(=O)Nc2ccc(F)c([C@]3(C(F)F)COCC(N)=N3)c2)c(C([2H])([2H])[2H])c([2H])c1Cl [Example 115]	=	8.22
